Data origin: patent US6211244A

biological target: human calcium receptor (Homo sapiens, UniProt P41180, R990G); construct: expressed in transfected cells; host or cells: HEK 293; test: increases in [Ca^2+ ]i in HEK-293 cells expressing the human calcium receptor (fura-2 loaded HEK 293/pHuPCaR4.0 cells), % activity; assay type: cell-based; conditions: 330 ng/mL
Sequence (P41180 20-1078 R990G): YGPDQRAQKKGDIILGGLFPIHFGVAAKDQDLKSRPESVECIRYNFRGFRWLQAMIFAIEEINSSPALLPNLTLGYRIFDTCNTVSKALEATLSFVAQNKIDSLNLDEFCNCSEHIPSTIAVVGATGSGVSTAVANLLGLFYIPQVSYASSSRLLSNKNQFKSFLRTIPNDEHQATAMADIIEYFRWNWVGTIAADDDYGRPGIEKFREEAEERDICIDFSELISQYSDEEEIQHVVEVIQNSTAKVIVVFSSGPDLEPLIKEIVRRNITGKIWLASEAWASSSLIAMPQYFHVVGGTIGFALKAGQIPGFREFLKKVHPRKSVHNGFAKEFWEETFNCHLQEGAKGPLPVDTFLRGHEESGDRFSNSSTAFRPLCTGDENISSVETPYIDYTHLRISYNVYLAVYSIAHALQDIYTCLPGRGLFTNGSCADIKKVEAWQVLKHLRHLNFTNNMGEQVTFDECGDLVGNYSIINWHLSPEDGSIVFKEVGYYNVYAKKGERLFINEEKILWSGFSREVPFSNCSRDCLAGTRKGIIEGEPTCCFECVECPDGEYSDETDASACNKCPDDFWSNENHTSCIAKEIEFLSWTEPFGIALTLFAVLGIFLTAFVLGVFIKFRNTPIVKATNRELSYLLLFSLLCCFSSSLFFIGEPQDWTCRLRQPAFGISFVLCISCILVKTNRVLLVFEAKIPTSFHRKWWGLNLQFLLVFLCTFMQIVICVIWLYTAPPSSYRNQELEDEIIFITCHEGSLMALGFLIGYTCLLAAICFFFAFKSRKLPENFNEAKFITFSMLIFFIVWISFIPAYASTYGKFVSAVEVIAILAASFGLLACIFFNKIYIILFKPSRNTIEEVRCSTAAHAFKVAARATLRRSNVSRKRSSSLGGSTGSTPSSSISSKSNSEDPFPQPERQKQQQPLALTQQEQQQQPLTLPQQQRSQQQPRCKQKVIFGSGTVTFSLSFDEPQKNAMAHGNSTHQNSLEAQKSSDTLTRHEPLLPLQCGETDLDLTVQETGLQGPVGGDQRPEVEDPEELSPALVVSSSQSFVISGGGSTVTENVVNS

COMPOUND	% activity / %
COc1ccc(C(NC(C)c2cccc3ccccc23)C2CC2)cc1 (single isomer, unassigned) [Compound 17I]	97
CC(NCCC(c1ccccc1)c1ccccc1)c1ccccc1F (stereo not drawn) [Compound 3A]	41
CC(NCc1cccc(OCc2ccccc2)c1)c1cccc2ccccc12 (stereo not drawn) [Compound 12J]	130
CSc1ccc(CN[C@H](C)c2cccc3ccccc23)cc1 [Compound 16X]	111
CC(N[C@H](C)c1cccc2ccccc12)c1ccc2ccccc2c1 (stereo partly drawn) [Compound 8Z]	101
CC(NC(C)c1ccc(C(C)(C)C)cc1)c1ccccc1 (mixture of isomers) [Compound 13H]	48
CC(C)Oc1cccc([C@@H](C)NCCCc2ccccc2Cl)c1 [Compound 21T]	112
COc1ccc(CNC(C)c2ccc(F)c(F)c2)cc1C (stereo not drawn) [Compound 24I]	84
COc1ccc(CNC(C)c2cccc(C#N)c2)cc1C (stereo not drawn) [Compound 24E]	71

###

target: human calcium receptor (Homo sapiens, UniProt P41180, R990G); construct: expressed in transfected cells; host or cells: HEK 293; test: increases in [Ca^2+ ]i in HEK-293 cells expressing the human calcium receptor (fura-2 loaded HEK 293/pHuPCaR4.0 cells), % activity; assay type: cell-based; settings: 330 ng/mL

COMPOUND	% activity (%)
C[C@@H](NCc1ccc(I)cc1)c1cccc2ccccc12 [Compound 17E]	110
COc1ccc(CNC(C)c2ccccc2Br)cc1C (stereo not drawn) [Compound 23P]	99
COc1cccc(C(C)NCC=Cc2ccccc2OC)c1 (stereo not drawn)	85
COc1cccc([C@@H](C)NCc2cccc(Oc3ccccc3)c2)c1 [Compound 12H]	115
COc1ccc(CNC(C)c2cccc(-c3ccccc3)c2)cc1C (stereo not drawn) [Compound 18T]	74
CC(C)C(N[C@H](C)c1cccc2ccccc12)c1ccc2ccccc2c1 (stereo partly drawn) [Compound 10F]	96
CC(NC(C)c1cccc2ccccc12)c1ccc2c(c1)-c1ccccc1-2 (stereo not drawn) [Compound 10R]	82
COc1cccc([C@@H](C)NCCCc2cc(F)ccc2F)c1 [Compound 24K]	106
C[C@@H](NCc1ccc(Cl)c(Cl)c1)c1cccc2ccccc12 [Compound 13R]	132

###

molecular target: human calcium receptor (Homo sapiens, UniProt P41180, R990G); construct: expressed in transfected cells; host or cells: HEK 293; test: increases in [Ca^2+ ]i in HEK-293 cells expressing the human calcium receptor (fura-2 loaded HEK 293/pHuPCaR4.0 cells), % activity; format: cell-based; settings: 330 ng/mL

MOLECULE	UNIT_OF_MEASUREMENT	% activity
COc1cccc(C(C)NCCCc2cc(OC)c(OC)c(OC)c2)c1 (centres unmarked)	%	73
COc1ccc(CN[C@H](C)c2cccc3ccccc23)cc1 [Compound 13U]	%	108
C[C@@H](NCCCc1cccc(OC(F)(F)F)c1)c1cccc2ccccc12 [Compound 24J]	%	103
COc1cccc([C@@H](C)NC(C)CCc2ccccc2Cl)c1 (some centres unmarked) [21C = 4U]	%	114
COc1cccc(C(C)NCc2ccc3ccccc3c2)c1 (centres unmarked) [Compound 10P]	%	102
